Value source: patent US10273241B2

System: MOLM-14
Test: Cell growth assay, MOLM-14 AML cell line
Type: cell-based, human
Conditions: Homo sapiens, MOLM-14, 240 h; day 10; cells passaged, fresh compound added on days 3 and 7; read-out: MOL M14 G150 day 10
Documented GI50 across a set of molecules
Please give a number only; it is taken to be in nM.

Examples from the recorded data:
molecule="C[C@]12CC=C3C=C4CC[C@H](NC5CC5)C[C@]45CCC3(O5)[C@@H]1CCC2c1ccc2ccncc2c1 (stereo partly drawn) [39B, β-cyclopropylamine]" displayunit=nM reading=30
molecule="C[C@]12CC=C3C=C4CC[C@H](N5CC[C@H](F)C5)C[C@]45CC[C@]3(O5)[C@@H]1CC[C@@H]2c1ccc2ccncc2c1 [36B, β-(S)-3-fluoropyrrolidine]" displayunit=nM reading=95

Now take the following molecule into account.
Query block: Please look up its GI50: C[C@]12CC=C3C=C4CC[C@H](N5[C@H]6CC[C@@H]5CC6)C[C@]45CC[C@]3(O5)[C@@H]1CC[C@@H]2c1ccc2ccncc2c1 [31B, β-7-Azabicyclo[2.2.1]heptane]
Result block: 100
